Test system: Saccharomyces cerevisiae
procedure details: protein stability index of tFT-peptide fusion (C-terminal peptide) (PSI (0-1 scale)); higher = more stable (slower turnover)
experimental conditions: genetic background: cdc34-1; temperature: 37 C
Items are presented alongside their recorded protein stability index.
readout type: protein stability index

[[record]]
record_sequence = "YLFFSCIFTFSC"
assay_target = "Saccharomyces cerevisiae"
quantitative_result = 0.121

[[record]]
record_sequence = "FVVLVFMLGSVC"
assay_target = "Saccharomyces cerevisiae"
quantitative_result = 0.274

[[record]]
record_sequence = "FKKIKGKIEKKN"
assay_target = "Saccharomyces cerevisiae"
quantitative_result = 0.736

[[record]]
record_sequence = "PRPETCHAVAVR"
assay_target = "Saccharomyces cerevisiae"
quantitative_result = 0.568

[[record]]
record_sequence = "AWPGRLWYFWLA"
assay_target = "Saccharomyces cerevisiae"
quantitative_result = 0.655

[[record]]
record_sequence = "CHFLLHYVFLLS"
assay_target = "Saccharomyces cerevisiae"
quantitative_result = 0.379

[[record]]
record_sequence = "CFVISVLFFFVG"
assay_target = "Saccharomyces cerevisiae"
quantitative_result = 0.292

[[record]]
record_sequence = "FFVFPFGLLFLS"
assay_target = "Saccharomyces cerevisiae"
quantitative_result = 0.504

[[record]]
record_sequence = "LVCLTPPPSPFS"
assay_target = "Saccharomyces cerevisiae"
quantitative_result = 0.689

[[record]]
record_sequence = "ERNERKYKIKIT"
assay_target = "Saccharomyces cerevisiae"
quantitative_result = 0.699

[[record]]
record_sequence = "CLCYFLFYFLFV"
assay_target = "Saccharomyces cerevisiae"
quantitative_result = 0.49

[[record]]
record_sequence = "WNIVKHREDMLS"
assay_target = "Saccharomyces cerevisiae"
quantitative_result = 0.685

[[record]]
record_sequence = "LPLSPPPLPSSR"
assay_target = "Saccharomyces cerevisiae"
quantitative_result = 0.67

[[record]]
record_sequence = "FVFAMSECIVLS"
assay_target = "Saccharomyces cerevisiae"
quantitative_result = 0.269

[[record]]
record_sequence = "SELLVHVVFWLA"
assay_target = "Saccharomyces cerevisiae"
quantitative_result = 0.268

[[record]]
record_sequence = "LAGLVRFWGCVG"
assay_target = "Saccharomyces cerevisiae"
quantitative_result = 0.622

[[record]]
record_sequence = "VLRACCDWGFLV"
assay_target = "Saccharomyces cerevisiae"
quantitative_result = 0.53

[[record]]
record_sequence = "RSAVECRVTNIR"
assay_target = "Saccharomyces cerevisiae"
quantitative_result = 0.701

[[record]]
record_sequence = "VSFFCLICRVYP"
assay_target = "Saccharomyces cerevisiae"
quantitative_result = 0.371


----------
Tested on: Saccharomyces cerevisiae
procedure details: protein stability index of tFT-peptide fusion (C-terminal peptide) (PSI (0-1 scale)); higher = more stable (slower turnover)
experimental conditions: genetic background: das1 deletion; temperature: 30 C
Reported values of protein stability index for individual entries
readout type: protein stability index

[[record]]
record_sequence = "WTLLSRFLDREW [ATG36 C-terminal 12 aa]"
assay_target = "Saccharomyces cerevisiae"
quantitative_result = 0.684

[[record]]
record_sequence = "FAAVSFVLGTGI [NCW1 C-terminal 12 aa]"
assay_target = "Saccharomyces cerevisiae"
quantitative_result = 0.714

[[record]]
record_sequence = "SVTSGSANFVFY [UTH1 C-terminal 12 aa]"
assay_target = "Saccharomyces cerevisiae"
quantitative_result = 0.708

[[record]]
record_sequence = "SLPLVSLFIVLA [YJL064W C-terminal 12 aa]"
assay_target = "Saccharomyces cerevisiae"
quantitative_result = 0.267

[[record]]
record_sequence = "AEHHLQTFLSEK [ISC1 C-terminal 12 aa]"
assay_target = "Saccharomyces cerevisiae"
quantitative_result = 0.649

[[record]]
record_sequence = "LIPELYSVLDGF [YDL007C-A C-terminal 12 aa]"
assay_target = "Saccharomyces cerevisiae"
quantitative_result = 0.745

[[record]]
record_sequence = "HLYFQNPPPAMC [HOT13 C-terminal 12 aa]"
assay_target = "Saccharomyces cerevisiae"
quantitative_result = 0.72

[[record]]
record_sequence = "KFQDVLDNFLQG [ETT1 C-terminal 12 aa]"
assay_target = "Saccharomyces cerevisiae"
quantitative_result = 0.713

[[record]]
record_sequence = "KKKLVKKTKSKK [RIO1 C-terminal 12 aa]"
assay_target = "Saccharomyces cerevisiae"
quantitative_result = 0.739

[[record]]
record_sequence = "RTLTTGNYHGLA [SYP1 C-terminal 12 aa]"
assay_target = "Saccharomyces cerevisiae"
quantitative_result = 0.683

[[record]]
record_sequence = "YSDTIWNVEPVT [GPH1 C-terminal 12 aa]"
assay_target = "Saccharomyces cerevisiae"
quantitative_result = 0.729

[[record]]
record_sequence = "ISTAPEQMMFLP [MSG5 C-terminal 12 aa]"
assay_target = "Saccharomyces cerevisiae"
quantitative_result = 0.717

